Where do these numbers come from? They come from patent US20220289837A1.

TARGET: wt-CFTR (Homo sapiens, UniProt P13569)
Sequence (P13569 whole entry): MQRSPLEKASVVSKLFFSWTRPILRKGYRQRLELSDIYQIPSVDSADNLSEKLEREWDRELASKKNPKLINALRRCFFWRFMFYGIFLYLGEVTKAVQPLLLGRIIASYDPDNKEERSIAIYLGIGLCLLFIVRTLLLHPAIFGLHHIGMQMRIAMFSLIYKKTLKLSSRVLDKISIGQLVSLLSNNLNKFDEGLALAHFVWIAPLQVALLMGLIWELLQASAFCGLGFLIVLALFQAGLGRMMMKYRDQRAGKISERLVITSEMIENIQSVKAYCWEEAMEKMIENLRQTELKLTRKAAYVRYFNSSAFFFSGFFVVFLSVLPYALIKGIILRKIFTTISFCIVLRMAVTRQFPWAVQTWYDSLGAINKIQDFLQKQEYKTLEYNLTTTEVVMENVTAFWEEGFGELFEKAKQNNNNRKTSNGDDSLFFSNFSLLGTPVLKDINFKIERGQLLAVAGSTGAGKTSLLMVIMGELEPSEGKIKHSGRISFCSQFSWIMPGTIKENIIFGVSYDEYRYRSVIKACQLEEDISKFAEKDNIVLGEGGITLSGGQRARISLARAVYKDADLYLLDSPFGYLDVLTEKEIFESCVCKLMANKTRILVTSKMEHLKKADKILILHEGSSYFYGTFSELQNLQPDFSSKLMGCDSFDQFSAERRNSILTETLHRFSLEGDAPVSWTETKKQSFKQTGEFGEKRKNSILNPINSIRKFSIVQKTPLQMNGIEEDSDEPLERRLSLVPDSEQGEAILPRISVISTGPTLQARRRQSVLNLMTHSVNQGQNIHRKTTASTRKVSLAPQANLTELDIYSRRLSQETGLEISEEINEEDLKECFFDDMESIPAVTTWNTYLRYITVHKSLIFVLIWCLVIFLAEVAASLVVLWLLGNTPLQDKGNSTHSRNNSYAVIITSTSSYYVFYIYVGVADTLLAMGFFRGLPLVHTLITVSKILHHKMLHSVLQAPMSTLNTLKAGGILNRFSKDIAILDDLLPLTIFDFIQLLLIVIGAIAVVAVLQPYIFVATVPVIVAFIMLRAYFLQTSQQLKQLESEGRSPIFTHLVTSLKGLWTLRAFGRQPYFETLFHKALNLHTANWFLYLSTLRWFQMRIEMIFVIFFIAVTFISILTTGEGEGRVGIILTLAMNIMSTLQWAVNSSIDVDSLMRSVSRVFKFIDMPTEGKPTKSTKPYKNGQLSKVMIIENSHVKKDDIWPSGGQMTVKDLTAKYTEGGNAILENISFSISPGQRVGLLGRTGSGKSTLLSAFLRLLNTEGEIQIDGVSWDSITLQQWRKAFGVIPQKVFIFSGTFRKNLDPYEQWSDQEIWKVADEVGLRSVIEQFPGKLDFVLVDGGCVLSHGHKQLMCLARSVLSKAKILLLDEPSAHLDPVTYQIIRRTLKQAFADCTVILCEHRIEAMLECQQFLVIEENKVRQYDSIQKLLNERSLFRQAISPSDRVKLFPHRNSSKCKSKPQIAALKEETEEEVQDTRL
PROTOCOL NOTES: ATPase activity of wt-CFTR
Assay type: biochemical
Design: His10-SUMO* (N); FLAG; EGFP (C); made in house; host or cells: HEK 293 cell line D165
CONDITION INFO: saturating concentration of nanobody
Experimental: To determine effect of nanobodies on functional stability, aliquots of purified wt-CFTR (25 nM) were preincubated 1 h on ice with 1 μM nanobody (or 15 μM, in the case of G3a). Substrate α-[32P]-ATP (2 μl) was then added for measurement of ATPase activity as previously described^[48]. Then, nanobody protection against thermal denaturation was determined after a 30 min thermal challenge of the protein complexes followed by an assay of residual ATPase.
// reported ATPase activity for each item listed

Q: Form field: reported ATPase activity of T27: NBD1-specific CFTR-stabilizing nanobody, SEQ ID NO:4, binds epitope 1 (protein, T27 Nanobody amino acid sequence) VHH: QVQLQESGGGLEQPGGSLRLSCATSGVIFGINAMGWYRQAPGKQRELVATFTSGGSTNYADFVEGRFTISRDNAKNTVYLQMNGLRPEDTAVYYCHATVVVSRYGLTYDYWGQGTQVTVSS
A: 30 % of PKA-phosphorylated CFTR

Q: Form field: reported ATPase activity of D12: NBD1-specific CFTR-stabilizing nanobody, SEQ ID NO:2, binds epitope 1 (protein, D12 Nanobody amino acid sequence) VHH: QVQLQESGGGLVQAGSSLRLACAATGSIRSINNMGWYRQAPGKQRGMVAIITRVGNTDYADSVKGRFTISRDNAKNTVYLQMNSLKPEDTATYYCHAEITEQSRPFYLTDDYWGQGTQVTVSS
A: 50 % of PKA-phosphorylated CFTR

Q: Form field: reported ATPase activity of T2a: NBD1-specific CFTR-stabilizing nanobody, SEQ ID NO:3, binds epitope 1 (protein, T2a Nanobody amino acid sequence) VHH: QVQLQESGGGLVQAGGSLRLSCAASGSIFRIDAMGWYRQAPGKQRELVAHSTSGGSTDYADSVKGRFTISRDNAKNTVYLQMNSLKPEDTAVYYCNADVRTRWYASNNYWGQGTQVTVSS
A: 50 % of PKA-phosphorylated CFTR
